tested on: BaF3; experiment: cells; format: functional, cell-based; settings: Mus musculus, BaF3, 72 h
Description: Cytotoxicity against mouse BaF3 cells harboring EGFR L858R/T790M mutant assessed as inhibition of cell growth incubated for 72 hrs by MTS assay
Quantity Measured: IC50 (µM)
All answers are understood in µM, so give the number only.

Prompt: Give IC50 for this entry on BaF3: COc1cc2ncnc(Nc3ccc(F)c(Cl)c3)c2cc1NC(=O)/C=C/CN1CCCCC1 [DACOMITINIB ANHYDROUS]
Response: 0.3

* * *

system: HCC827; assay: cells; format: functional, cell-based; settings: Homo sapiens, HCC827, 72 h
Description: Antiproliferative activity against human HCC827 cells harboring EGFR Del E746_A750 mutant transfected with ERBB2 assessed as inhibition of cell growth incubated for 72 hrs by MTS assay
Quantity Measured: pIC50
Scale: pIC50 equals -log10([C]), with [C] in mol/L.

Prompt: Return pIC50 for the following compound: COc1cc2ncnc(Nc3ccc(F)c(Cl)c3)c2cc1NC(=O)/C=C/CN1CCCCC1 [DACOMITINIB ANHYDROUS]
Response: 8.70
